biological target: Human HIF-PHD2 (Homo sapiens, UniProt Q9GZT9); construct: FLAG-tagged full length PHD2 expressed in and purified from baculovirus-infected Sf9 cells; FLAG; made in house; host or cells: baculovirus-infected Sf9 cells; test: Inhibition of the hydroxylation of a HIF peptide by PHD2 (time resolved fluorescence, 384-well); type: biochemical; details: FLAG-tagged full length PHD2; 0.2 μM 2-oxoglutarate, 0.5 μM HIF-1α peptide; 45 minutes at room temperature; read-out: MS m/z (M + 1)+ and human HIF-PHD2 IC50
Sequence (Q9GZT9 whole entry): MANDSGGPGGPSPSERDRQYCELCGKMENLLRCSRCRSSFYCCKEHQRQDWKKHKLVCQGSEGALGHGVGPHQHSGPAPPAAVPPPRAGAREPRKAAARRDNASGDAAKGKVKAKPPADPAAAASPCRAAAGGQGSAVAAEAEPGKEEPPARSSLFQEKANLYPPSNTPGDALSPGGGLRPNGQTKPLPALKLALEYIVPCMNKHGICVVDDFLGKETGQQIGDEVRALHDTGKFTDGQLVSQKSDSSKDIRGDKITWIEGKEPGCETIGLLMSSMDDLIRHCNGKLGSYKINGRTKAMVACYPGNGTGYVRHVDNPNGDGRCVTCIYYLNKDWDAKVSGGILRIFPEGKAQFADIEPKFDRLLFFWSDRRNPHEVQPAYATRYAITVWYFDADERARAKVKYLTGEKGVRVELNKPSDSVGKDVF
Please use rule met for IC50 under 10 nM and rule not met for everything else, ties included.

{"compound": "COc1ncc(-c2ccc3c(O)c(C(=O)NCC(=O)O)c(=O)n4c3c2OCC4c2ccc(C(F)(F)F)cc2)cn1 (stereo not shown)", "assignedLabel": "rule not met"}
{"compound": "O=C(O)CNC(=O)c1c(O)c2ccc(-c3ccccc3)c3c2n(c1=O)CCO3", "assignedLabel": "rule met"}
{"compound": "COc1ncccc1-c1ccc(C2COc3cccc4c(O)c(C(=O)NCC(=O)O)c(=O)n2c34)cc1 (stereo not shown)", "assignedLabel": "rule not met"}
{"compound": "N#Cc1ccc(C2Cn3c(=O)c(C(=O)NCC(=O)O)c(O)c4c(OC(F)(F)F)ccc(c43)O2)cc1 (single isomer, unassigned)", "assignedLabel": "rule not met"}
{"compound": "O=C(O)CNC(=O)c1c(O)c2ccc(-c3ccccn3)c3c2n(c1=O)C(c1ccc(C(F)(F)F)cc1)CO3 (stereo not shown)", "assignedLabel": "rule not met"}
{"compound": "O=C(O)CNC(=O)c1c(O)c2c(Cl)ccc3c2n(c1=O)CC(c1ccc(C(F)(F)F)cc1)O3 (single isomer, unassigned)", "assignedLabel": "rule met"}
{"compound": "O=C(O)CNC(=O)c1c(O)c2ccc(F)c3c2n(c1=O)C(c1cncs1)CO3 (stereo not shown)", "assignedLabel": "rule met"}

Where these numbers come from: patent US9969752B2
